target.or.test.system: hPNPLA6 (Homo sapiens)
Construct: made in house; host or cells: Expi cells (lysate)
Sequence (Q8IY17 whole entry): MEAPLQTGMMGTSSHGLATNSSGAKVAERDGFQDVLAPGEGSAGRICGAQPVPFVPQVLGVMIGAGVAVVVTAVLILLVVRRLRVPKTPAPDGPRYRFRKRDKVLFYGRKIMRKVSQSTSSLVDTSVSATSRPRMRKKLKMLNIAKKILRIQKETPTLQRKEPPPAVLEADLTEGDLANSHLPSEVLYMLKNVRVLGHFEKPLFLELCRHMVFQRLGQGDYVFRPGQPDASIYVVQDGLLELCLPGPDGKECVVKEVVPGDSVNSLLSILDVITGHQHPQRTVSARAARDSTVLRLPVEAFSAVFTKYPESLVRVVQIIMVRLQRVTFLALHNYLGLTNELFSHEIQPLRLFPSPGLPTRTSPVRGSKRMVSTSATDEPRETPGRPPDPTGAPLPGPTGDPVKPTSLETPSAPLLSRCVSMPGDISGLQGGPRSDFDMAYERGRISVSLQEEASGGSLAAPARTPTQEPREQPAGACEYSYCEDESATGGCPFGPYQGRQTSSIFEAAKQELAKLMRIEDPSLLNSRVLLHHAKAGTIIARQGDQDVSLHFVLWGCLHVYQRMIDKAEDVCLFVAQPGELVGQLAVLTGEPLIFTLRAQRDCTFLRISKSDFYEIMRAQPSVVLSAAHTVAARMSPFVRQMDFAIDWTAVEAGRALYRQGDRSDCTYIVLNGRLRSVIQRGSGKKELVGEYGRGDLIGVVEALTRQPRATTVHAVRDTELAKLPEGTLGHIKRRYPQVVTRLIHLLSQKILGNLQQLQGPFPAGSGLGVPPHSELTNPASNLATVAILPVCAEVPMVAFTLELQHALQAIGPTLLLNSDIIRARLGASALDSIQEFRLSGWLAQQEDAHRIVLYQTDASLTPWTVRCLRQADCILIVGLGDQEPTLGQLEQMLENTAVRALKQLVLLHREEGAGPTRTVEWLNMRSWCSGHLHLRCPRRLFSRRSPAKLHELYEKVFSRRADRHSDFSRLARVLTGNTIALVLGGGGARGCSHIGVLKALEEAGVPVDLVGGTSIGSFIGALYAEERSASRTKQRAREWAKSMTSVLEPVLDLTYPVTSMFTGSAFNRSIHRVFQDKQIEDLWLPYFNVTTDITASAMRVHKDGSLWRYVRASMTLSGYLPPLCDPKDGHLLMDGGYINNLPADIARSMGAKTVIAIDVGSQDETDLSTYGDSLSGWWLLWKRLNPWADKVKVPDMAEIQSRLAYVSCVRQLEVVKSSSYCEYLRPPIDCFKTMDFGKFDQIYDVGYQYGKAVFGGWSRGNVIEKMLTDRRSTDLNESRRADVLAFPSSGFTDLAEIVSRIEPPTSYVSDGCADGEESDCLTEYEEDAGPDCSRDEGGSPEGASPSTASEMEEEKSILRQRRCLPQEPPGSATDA
procedure.text: hPNPLA6 off-target inhibition
Type: biochemical
condition.info: read-out: hPNPLA6 off-target inhibition [% inhibition at 100 μM]
Some compounds, each annotated with its measured inhibition at 100 µM.
property.name: inhibition at 100 µM (%)

C#C[C@@H](C)OC(=O)c1csc(-c2ccc(OCC)cc2)n1    0
CCOc1ccc(-c2nc(C(=O)OCc3ccsc3)cs2)cc1    0
CCOc1ccc(-c2nc(C(=O)OCc3ccc(Br)s3)cs2)cc1    0
COc1cc(C(=O)OC(C)C)nc(-c2ccc(OC(C)C)cc2)c1    0
CCOc1ccc(-c2cccc(C(=O)OCc3ccco3)n2)cc1    0
C#C[C@H](C)OC(=O)c1csc(-c2ccc(OCC)cc2)n1    0
CCOc1ccc(-c2nc(C(=O)OCc3ccc(Cl)s3)cs2)cc1    0
CCOc1ccc(-c2nc(C(=O)OCc3cccs3)cs2)cc1    0
CCOc1ccc(-c2cccc(C(=O)OCc3cccs3)n2)cc1    0
CCOc1ccc(-c2nc(C(=O)OCc3ccoc3)cs2)cc1    0
CCCCOC(=O)c1csc(-c2ccc(OCC)cc2)n1    0
CC#CCOC(=O)c1csc(-c2ccc(OCC)cc2)n1    0
